Source listed as ChEMBL document CHEMBL3988442.

Biological target: Aspartate--tRNA(Asp/Asn) ligase (Mycobacterium tuberculosis (strain ATCC 25618 / H37Rv))
Experiment: Assay for Asp RNA synthetase-1 from Mycobacterium tuberculosis
Format: functional
Set-up: scale not given: in the data most compounds retested in dose-response had high values
Conditions: 30 µM
Readout type: Percent Effect (%)

Cc1cc2n(n1)CC(CNCc1ccnc(-n3ccnc3C)c1)CN2 (stereo unspecified)    -2.39
CCOCC(O)CN1CCN(C(=O)Cc2ccc(C)nc2)CC1 (stereo unspecified)    -0.811
CCN1CCN(C(=O)NCCOc2ccc3c(c2)OCO3)CC1    -4.65
c1ccc(C[C@H]2CN(Cc3nccs3)CC[C@H]2OCC2CC2)cc1    3.93
O=C(Nc1ccccc1OC(F)F)C1=NN(c2ccccc2)C(=O)CN1    9.31
COCCN1C(=O)[C@]2(CC[C@@H]3CN(C(=O)NCC(C)C)C[C@@H]32)N=C1C    -3.99
Cc1cc(C)n(CC2CCCN2C(=O)CCc2cscn2)n1 (stereo unspecified)    -0.678
Cc1ccnc(OCC(=O)N2CCC(C(N)=O)CC2)n1    -6.44
C=C1c2ccccc2C(=O)N1CCC(=O)N1CCNC(=O)C1    -2.35
CNC(=O)CSc1cnn(CC(=O)Nc2cccc(Cl)c2C)c(=O)c1Cl    -5.35
CC(C)Oc1ncccc1CNC(=O)c1ccco1    -4.72
